Reference source: paper PMC3678169

Biological target: 15N-labeled Tiam1 PDZ domain (human, UniProt Q13009 841-930)
Sequence (Q13009 841-930): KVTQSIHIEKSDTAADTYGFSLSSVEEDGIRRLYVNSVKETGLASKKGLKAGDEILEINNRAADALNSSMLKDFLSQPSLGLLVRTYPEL
Assay: NMR titration
Where no end group is shown, it is not given here. The star is where a group is joined. Dansyl = CN(C)c1cccc2c(S(=O)(=O)*)cccc12
readout.type: pKd
On this scale, pKd is minus log10 of a concentration expressed in M (mol/L).

Recorded pKd (binder Dansyl-MLAELYGSDPREELLY [human VE-cadherin peptide (654–669; MLAELYGSDPREELLY)] ): 3.01
